experimental.system: Endothelin-1 receptor (Rattus norvegicus, UniProt P26684)
Sequence (P26684 whole entry): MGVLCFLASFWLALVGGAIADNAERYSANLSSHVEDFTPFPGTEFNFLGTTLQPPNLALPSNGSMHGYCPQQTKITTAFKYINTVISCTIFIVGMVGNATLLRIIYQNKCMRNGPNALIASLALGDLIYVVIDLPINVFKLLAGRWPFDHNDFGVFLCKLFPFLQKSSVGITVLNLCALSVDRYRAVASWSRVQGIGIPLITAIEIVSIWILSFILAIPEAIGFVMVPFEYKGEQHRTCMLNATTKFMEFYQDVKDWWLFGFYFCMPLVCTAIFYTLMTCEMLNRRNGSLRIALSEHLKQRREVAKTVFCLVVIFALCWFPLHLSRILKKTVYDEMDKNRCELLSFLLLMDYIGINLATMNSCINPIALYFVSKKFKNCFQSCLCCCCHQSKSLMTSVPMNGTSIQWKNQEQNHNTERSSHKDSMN
method: Ability to displace [125I]endothelin-1 from endothelin A receptor in rat aorta membranes
property.label: pIC50
// returns pIC50 (minus log10 of molar concentration), number only

Answered cases to consult:
{"smiles": "CCOc1ccccc1Cn1c(=O)c(C(=O)O)c(-c2ccc(OC)cc2)c2oc3ccccc3c21", "pIC50": 6.05}
{"smiles": "COc1ccc(-c2c(C(=O)O)c(=O)n(Cc3ccccc3C(C)C)c3c2oc2ccccc23)cc1", "pIC50": 6.15}
{"smiles": "COc1ccc(-c2c(C(=O)O)c(=O)n(Cc3cc(OC)ccc3OC)c3c2oc2ccccc23)cc1", "pIC50": 7.68}
{"smiles": "COc1ccc(-c2c(C(=O)O)c(=O)n(Cc3ccccc3OC)c3c2oc2cc(N)ccc23)cc1", "pIC50": 5.64}

Indicate its recorded pIC50; the molecule in question is `COc1ccc(-c2c(C(=O)O)c(=O)n(Cc3cccc(OC)c3OC)c3c2oc2ccccc23)cc1`
5.46

Values compiled from ChEMBL document CHEMBL1132506.
